SUBJECT OF TEST: Human GLP-1R (Homo sapiens)
Sequence (P43220 24-463): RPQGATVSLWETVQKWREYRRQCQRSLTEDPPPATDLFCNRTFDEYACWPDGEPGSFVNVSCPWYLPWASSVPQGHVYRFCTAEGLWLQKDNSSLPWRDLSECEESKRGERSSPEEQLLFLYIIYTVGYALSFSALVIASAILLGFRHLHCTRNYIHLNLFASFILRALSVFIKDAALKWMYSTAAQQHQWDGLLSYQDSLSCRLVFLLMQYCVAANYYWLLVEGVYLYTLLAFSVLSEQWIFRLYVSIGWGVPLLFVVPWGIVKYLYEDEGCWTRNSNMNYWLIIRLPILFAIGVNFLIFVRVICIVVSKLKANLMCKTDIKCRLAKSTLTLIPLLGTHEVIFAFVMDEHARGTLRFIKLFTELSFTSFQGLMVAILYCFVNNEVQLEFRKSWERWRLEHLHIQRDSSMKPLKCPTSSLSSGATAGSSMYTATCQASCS
ASSAY COMMENT: GPCR cell-based cAMP assay, human GLP-1 receptor
Set-up: expressed in transfected cells; host or cells: CHO-K1, stably transfected
RUN CONDITIONS: stably transfected CHO-Kl cells, 0.1% casein
Numbered stars: 1 amine (or outer) side, 2 acyl side, 3 side chain; on linkers, the order of the positions; unused ones are H or OH. Bridge positions count the residues as written; N and C are the ends. Square brackets hold non-standard residues; d marks the D form. Side chains are listed from the residue outwards. * marks the point of attachment. C18 diacid = O=C(O)CCCCCCCCCCCCCCCCC(=O)*; γGlu = O=C(O)[C@H](CCC(=O)[*:2])N[*:1]; AEEA = NCCOCCOCC(=O)O; Aib = CC(C)(N)C(=O)O
Here, each record is paired with measured EC50 data.
Field: numeric (nM). Do not append units.

# count of solved cases: 3
[Q] Give its EC50 value. Item: Y[Aib]EGTFTSDYSI[Aib]LDKIAQQAFVQWLIAGGPSASHLSTAVLGK([AEEA-AEEA-γGlu-C18 diacid])LS[Aib]ELHKLEDYPRTDVGAESP-NH2 [SEQ ID NO. 57]
[A] 0.724

[Q] Next substance up: Y[Aib]EGTFTSDYSI[Aib]LDKIAQQAFVQWLIAGGPSSGAPPPSCNTATCVLGRLSQELHRLQTYPRTNTGK([AEEA-AEEA-γGlu-C18 diacid])NTY-NH2 (disulfide 40-45 (inferred)) [SEQ ID NO. 45]
[A] 0.416

[Q] Next substance up: Y[Aib]EGTFTSDYSI[Aib]LDKIAQQAFVQWLIAGGPSKCNTATCATQK([AEEA-AEEA-γGlu-C18 diacid])LAEFLRHSSNNFGPILPPTNVGSHTP-NH2 (disulfide 34-39 (inferred)) [SEQ ID NO. 56]
[A] 1

Moving on to another substance below.
[Q] Give its EC50 value. Item: Y[Aib]EGTFTSDYSI[Aib]LDKIAQQAFVQWLIAGGPSSGAPPPSKCNTATCVLGRLSQELHRLQTYPRTNTK([AEEA-AEEA-γGlu-C18 diacid])SNTY-NH2 (disulfide 41-46 (inferred)) [SEQ ID NO. 52]
[A] 0.59

---

SUBJECT OF TEST: Human GIPR (Homo sapiens, UniProt P48546)
Construct: expressed in transfected cells; host or cells: CHO-K1, stably transfected
Sequence (P48546 22-466): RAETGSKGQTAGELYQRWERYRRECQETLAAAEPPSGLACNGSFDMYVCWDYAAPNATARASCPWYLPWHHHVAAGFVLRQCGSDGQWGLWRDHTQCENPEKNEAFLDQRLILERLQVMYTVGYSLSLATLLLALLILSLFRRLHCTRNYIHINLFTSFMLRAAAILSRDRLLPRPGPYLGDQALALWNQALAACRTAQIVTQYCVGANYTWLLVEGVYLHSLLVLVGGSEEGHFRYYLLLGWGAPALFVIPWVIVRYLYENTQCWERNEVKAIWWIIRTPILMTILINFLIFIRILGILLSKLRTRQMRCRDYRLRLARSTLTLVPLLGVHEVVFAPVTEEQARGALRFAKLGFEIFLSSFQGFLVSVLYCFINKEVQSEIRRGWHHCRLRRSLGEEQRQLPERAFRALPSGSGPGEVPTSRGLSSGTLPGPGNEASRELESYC
ASSAY COMMENT: GPCR cell-based cAMP assay, human GIP receptor
RUN CONDITIONS: stably transfected CHO-Kl cells, 0.1% casein
Numbered stars: 1 amine (or outer) side, 2 acyl side, 3 side chain; on linkers, the order of the positions; unused ones are H or OH. Bridge positions count the residues as written; N and C are the ends. Square brackets hold non-standard residues; d marks the D form. Side chains are listed from the residue outwards. * marks the point of attachment. C18 diacid = O=C(O)CCCCCCCCCCCCCCCCC(=O)*; γGlu = O=C(O)[C@H](CCC(=O)[*:2])N[*:1]; AEEA = NCCOCCOCC(=O)O; Aib = CC(C)(N)C(=O)O
RESULT TYPE: pEC50
FYI, pEC50 means -log10 of a concentration in mol per litre.

# count of solved cases: 3
[Q] Give its pEC50 value. Item: Y[Aib]EGTFTSDYSI[Aib]LDKIAQQAFVQWLIAGGPSASHLSTAVLGK([AEEA-AEEA-γGlu-C18 diacid])LS[Aib]ELHKLEDYPRTDVGAESP-NH2 [SEQ ID NO. 57]
[A] 10.33

[Q] Next substance up: Y[Aib]EGTFTSDYSI[Aib]LDKIAQQAFVQWLIAGGPSKCNTATCATQK([AEEA-AEEA-γGlu-C18 diacid])LAEFLRHSSNNFGPILPPTNVGSHTP-NH2 (disulfide 34-39 (inferred)) [SEQ ID NO. 56]
[A] 10.54

[Q] Next substance up: Y[Aib]EGTFTSDYSI[Aib]LDKIAQQAFVQWLIAGGPSSGAPPPSKCNTATCVLGRLSQELHRLQTYPRTNTK([AEEA-AEEA-γGlu-C18 diacid])SNTY-NH2 (disulfide 41-46 (inferred)) [SEQ ID NO. 52]
[A] 9.83

Moving on to another substance below.
[Q] Give its pEC50 value. Item: Y[Aib]EGTFTSDYSI[Aib]LDKIAQQAFVQWLIAGGPSSGAPPPSCNTATCVLGRLSQELHRLQTYPRTNTGK([AEEA-AEEA-γGlu-C18 diacid])NTY-NH2 (disulfide 40-45 (inferred)) [SEQ ID NO. 45]
[A] 10.39

All figures here come from patent US20240059753A1.
